Biological target: T1, hEva1-mouse Fc (human, UniProt O60487 27-154, limits assumed)
T1 construct: SPR analyte; the '1' is probably the first concentration (1 nM); also called hEva1-mouse Fc1 (so in the source); not shown: mouse Fc
T1 sequence: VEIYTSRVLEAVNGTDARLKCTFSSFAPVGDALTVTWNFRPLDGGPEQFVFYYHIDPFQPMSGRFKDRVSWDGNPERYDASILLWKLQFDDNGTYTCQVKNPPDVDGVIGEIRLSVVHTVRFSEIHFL
Test: SPR (BiaCore T200), single-cycle kinetics; antibody captured by anti-human IgG on CM5 chip, hEva1-mouse Fc as analyte
Classify: label 1 when Kd is strictly less than 800 nM; label 0 when Kd is not.

Check out these entries, answers already filled in.
humanized B2E5-48 antibody H4-L2 (antibody, human IgG1, V domains shown, Human IgG1 heavy chain and human kappa light chain vectors; made in HEK293T cells) VH: QVQLVQSGSELKKPGASVKVSCKASGYTFTNYWMHWVRQAPGQGLEWMGEINPTNGGTDYNEGFTGRFVFSVDKSVSTAYLQISSLKAEDTAVYYCTIYTTALDYWGQGTLVTVSS VL: EIVLTQSPATLSLSPGERATLSCRASSSVGYMYWYQQKPGQAPRPLIYVTSNRATGIPARFSGSGSGTDYTLTISSLEPEDFAVYYCQQWSSNPPTFGQGTKLEIK ... label 1
humanized B2E5-48 antibody H3-L4 (antibody, human IgG1, V domains shown, Human IgG1 heavy chain and human kappa light chain vectors; made in HEK293T cells) VH: QVQLVQSGSELKKPGASVKVSCKASGYTFTNYWMHWVRQAPGQGLEWIGEINPTNGGTDYNEGFTGRFVLSVDKSSSTAYLQISSLKAEDTAVYYCTIYTTALDYWGQGTLVTVSS VL: DIQLTQSPSFLSASVGDRVTITCRASSSVGYMYWYQQKPGKAPKPLIYVTSNLASGVPSRFSGSGSGTEYTLTISSLQPEDFATYYCQQWSSNPPTFGQGTKLEIK ... label 0
humanized B2E5-48 antibody H1-L4 (antibody, human IgG1, V domains shown, Human IgG1 heavy chain and human kappa light chain vectors; made in HEK293T cells) VH: QVQLVQSGAEVKKPGASVKVSCKASGYTFTNYWMHWVRQAPGQGLEWIGEINPTNGGTDYNEKFQGRVTLTVDKSSSTAYMELSSLRSEDTAVYYCTIYTTALDYWGQGTLVTVSS VL: DIQLTQSPSFLSASVGDRVTITCRASSSVGYMYWYQQKPGKAPKPLIYVTSNLASGVPSRFSGSGSGTEYTLTISSLQPEDFATYYCQQWSSNPPTFGQGTKLEIK ... label 1
humanized B2E5-48 antibody H4-L3 (antibody, human IgG1, V domains shown, Human IgG1 heavy chain and human kappa light chain vectors; made in HEK293T cells) VH: QVQLVQSGSELKKPGASVKVSCKASGYTFTNYWMHWVRQAPGQGLEWMGEINPTNGGTDYNEGFTGRFVFSVDKSVSTAYLQISSLKAEDTAVYYCTIYTTALDYWGQGTLVTVSS VL: QIQLTQSPSFLSASVGDRVTITCRASSSVGYMYWYQQKPGKAPKPLIYVTSNLASGVPSRFSGSGSGTEYTLTISSLQPEDFATYYCQQWSSNPPTFGQGTKLEIK ... label 0
humanized B2E5-48 antibody H2-L2 (antibody, human IgG1, V domains shown, Human IgG1 heavy chain and human kappa light chain vectors; made in HEK293T cells; also called B2E5-H2-L2) VH: QVQLVQSGAEVKKPGASVKVSCKASGYTFTNYWMHWVRQAPGQGLEWMGEINPTNGGTDYNEKFQGRVTMTVDKSTSTAYMELSSLRSEDTAVYYCTIYTTALDYWGQGTLVTVSS VL: EIVLTQSPATLSLSPGERATLSCRASSSVGYMYWYQQKPGQAPRPLIYVTSNRATGIPARFSGSGSGTDYTLTISSLEPEDFAVYYCQQWSSNPPTFGQGTKLEIK ... label 1

Read the next record carefully.
Field: below-cutoff. Rule: recorded Kd strictly less than 800 nM. Subject: humanized B2E5-48 antibody H2-L4 (antibody, human IgG1, V domains shown, Human IgG1 heavy chain and human kappa light chain vectors; made in HEK293T cells) VH: QVQLVQSGAEVKKPGASVKVSCKASGYTFTNYWMHWVRQAPGQGLEWMGEINPTNGGTDYNEKFQGRVTMTVDKSTSTAYMELSSLRSEDTAVYYCTIYTTALDYWGQGTLVTVSS VL: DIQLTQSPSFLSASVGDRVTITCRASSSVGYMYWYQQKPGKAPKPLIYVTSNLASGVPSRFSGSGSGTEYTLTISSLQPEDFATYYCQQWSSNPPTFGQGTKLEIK
label 1
